# target_under_test: Bcl-2 protein (Recombinant Human Bcl-2 Protein) (Homo sapiens, UniProt P10415)
# Construct: purchased Novus Biologicals NBP2-34889
# Sequence (P10415 whole entry): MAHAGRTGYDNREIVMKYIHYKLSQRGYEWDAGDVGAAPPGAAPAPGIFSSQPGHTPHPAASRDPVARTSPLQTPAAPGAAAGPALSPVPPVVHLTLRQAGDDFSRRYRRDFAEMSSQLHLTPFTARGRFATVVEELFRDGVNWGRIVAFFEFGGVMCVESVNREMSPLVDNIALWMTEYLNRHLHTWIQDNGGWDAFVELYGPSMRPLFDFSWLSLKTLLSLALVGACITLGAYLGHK
# measurement_protocol: AS-MS evaluation of binding of the Example 4 mixture library (1200 compounds/well) to Bcl-2, ASMS ratio (%)
# experimental_conditions: replicate n = 2; mixture library; value belongs to the MS peak assigned to the compound
reported_endpoint: ASMS ratio (%) n = 2

Name the recorded ASMS ratio (%) n = 2 for CCOc1cccc(C#Cc2cncc(C(=O)N3CCN(c4ccc(C(=O)NS(=O)(=O)C(C)(C)C)nn4)CC3)c2)c1 . 0.0%

Name the recorded ASMS ratio (%) n = 2 for CCOc1cncc(-c2csc(C(=O)N3CCN(c4ccc(C(=O)NS(=O)(=O)C(C)(C)C)cc4)CC3)c2)c1 . 0.0%

Name the recorded ASMS ratio (%) n = 2 for CCOc1cncc(-c2cc(CN3CCN(c4ccc(C(=O)NS(=O)(=O)C(C)(C)C)cc4)CC3)cc(OC(F)(F)F)c2)c1 . 0.0%

Next:
Name the recorded ASMS ratio (%) n = 2 for CCOc1cccc(-c2cc(CN3CCN(c4ccc(C(=O)NS(C)(=O)=O)nn4)CC3)cc(OCC)c2)c1 . 0.0%

Name the recorded ASMS ratio (%) n = 2 for CCOc1cccc(-c2ccc(CN3CCN(c4ccc(C(=O)NS(=O)(=O)C(C)(C)C)cc4)CC3)cc2C)c1 . 0.0%

Name the recorded ASMS ratio (%) n = 2 for CCOc1cccc(-c2cc(CN3CCN(c4ccc(C(=O)NS(C)(=O)=O)nn4)CC3)cc(C(F)(F)F)c2)c1 . −0.9%
